System: OVCAR-3
Test: NCI tumour cell line growth inhibition, 48 h
Calls of active or inactive are those of the source. Rule as the data show it: active = GI50 up to about 1.1 µM and inactive = higher.
Give your call using only these classes: active, inactive

Sample answers from the record:
INSERT INTO assay_data (molecule, assignedclass) VALUES
  ('c1ccc(COc2ccc3[nH]c4c5c6ccccc6nc-5c[nH]c4c3c2)cc1', 'inactive'),
  ('COc1cc2cc[n+](C)c(Cc3ccc(Oc4cc(Cc5c6cc(OC)c(OC)cc6cc[n+]5C)ccc4OC)cc3)c2cc1OC', 'inactive'),
  ('CCN(CC)CCNc1ccc2ncn3c4c(OC)cccc4c(=O)c1c23', 'active'),
  ('COC(=O)c1cc(=O)nc2sc3cccc(C)c3n12', 'inactive'),
  ('O=C(O)CCSC(=O)Nc1ccc([N+](=O)[O-])cc1', 'inactive');

Recorded call for c1ccc(C2SCC3=Nc4ccccc4CN32)cc1 (stereo not given) ? active

Recorded call for Cc1ccc(NC(=O)C2C3CCC(O3)C2C(=O)O)cc1 (stereo not given) ? inactive

###

Tested on: TK-10
Experiment: NCI tumour cell line growth inhibition, 48 h
Activity calls are given as the source filed them. Cut-off read from the data, not from the text of the source: active = GI50 up to about 1.1 µM and inactive = higher.
quantityKind: GI50

Working through the 5 molecules below one at a time, give GI50 for each.
1. CCCCCCCCCC[C@@H](O)[C@@H]1CC[C@@H]([C@@H]2CC[C@@H]([C@@H](O)CCCCCCCCCC[C@H](O)CC3=CC(C)OC3=O)O2)O1 (stereo not given in full)
2. Cn1c(=O)c2c3ccccc3c(C(=O)c3ccccc3)n2c2ccccc21
3. COc1c2c(cc3c1C(=O)c1c(O)cccc1C3=O)CC(O)CC2 (stereo not given)
4. CCCC1c2c(ccc3ccccc23)Oc2ccc3ccccc3c21
5. Nc1ccc2[nH]cc(CCC(=O)O)c2c1

["3.48 µM (inactive)", "> 43.7 µM (inactive)", "50.5 µM (inactive)", "35.7 µM (inactive)", "> 100 µM (inactive)"]

###

System: K562
Experiment: NCI tumour cell line growth inhibition, 48 h
The source made the active and inactive calls. Rule as the data show it: active = GI50 up to about 1.1 µM and inactive = higher.
Give your call using only these classes: yes (1) = active, no (0) = inactive

Sample answers from the record:
INSERT INTO measurements (compound, assignedclass) VALUES
  ('CCN(/N=C1\CC2C=CCN(C2)C(=O)Cc2c1[nH]c1ccccc21)S(=O)(=O)c1ccc(C)cc1 (stereo unspecified)', 'no (0)'),
  ('Cc1ccc(NC(=O)c2cccc([N+](=O)[O-])c2O)c(C)c1', 'no (0)'),
  ('CN(C)CCNC(=O)c1cccc2c1nc(-c1ccc(F)cc1)c1ccccc12', 'no (0)'),
  ('Cc1cccc(C(C)C)c1NC(=O)CCl', 'no (0)'),
  ('COc1cc(OC)cc(C(=O)NC2=C(Cl)C(=O)c3ccccc3C2=O)c1', 'yes (1)'),
  ('Cc1ccc(S(=O)(=O)Nn2c(S)c(C#N)c(-c3ccc(N(C)C)cc3)c(C#N)c2=O)cc1', 'no (0)');

Moving on to the next compound.
Recorded call for C=C(c1ccccc1)c1cc2c(=O)[nH]ccc2n1C ? no (0)

###

Tested on: HOP-92
Test: NCI tumour cell line growth inhibition, 48 h
The source made the active and inactive calls. Cut-off read from the data, not from the text of the source: active = GI50 up to about 1.1 µM and inactive = higher.
For each of the molecules below, state its GI50.

INSERT INTO results (molecule, val) VALUES
  ('c1ccc(CN2CCc3[nH]c4ccccc4c3C2)cc1', '18 µM (inactive)'),
  ('Cn1nc2ccc3nccc(NCCNCCO)c3c2n1', '36.3 µM (inactive)'),
  ('COc1cc(C2SCC(=O)N2c2ccc(-n3c(-c4ccccc4)nc4ccccc4c3=O)cc2)ccc1O (stereo not given)', '13.3 µM (inactive)'),
  ('CC(=O)N1CCC2(C=Nc3ccccc32)CC1', '> 100 µM (inactive)'),
  ('N#Cc1cccc(Nc2ccccc2SSc2ccccc2Nc2cccc(C#N)c2)c1', '7.89 µM (inactive)');

Working through the 5 molecules below one at a time, give GI50 for each.
1. CN1CCN(CCn2c3c4ccccc4ccc3c3oc(=O)c4ccccc4c32)CC1
2. COc1cc(-c2nn3c(=O)n(-c4ccc(Cl)cc4)c(=O)nc3s2)cc(OC)c1OC
3. Cc1cc2c(cc1C)C(=O)C1(C2)Cc2c(ccc(C)c2C)C1=O (stereo not given)
4. CCCCCCCCCC[C@@H](O)[C@@H]1CC[C@@H]([C@@H]2CC[C@@H]([C@@H](O)CCCCCCCCCC[C@H](O)CC3=CC(C)OC3=O)O2)O1 (stereo not given in full)
5. O=C(CN1CCN(c2ccccc2)CC1)N1CCc2c([nH]c3ccccc23)C1c1cccnc1 (stereo not given)

1. 5.85 µM (inactive)
2. 15.5 µM (inactive)
3. 79.4 µM (inactive)
4. 2.26 µM (inactive)
5. 20.2 µM (inactive)

###

For each of the molecules below, state its GI50.
Tested on: Malme-3M
Assay: NCI tumour cell line growth inhibition, 48 h
Active and inactive are the calls of the source. No stated cut-off is given here; in the data, active = GI50 up to about 1.1 µM and inactive = higher.

Record excerpt, results attached:
INSERT INTO assay_data (molecule, val) VALUES
  ('CN1CCC(O)(OC(=O)C(c2ccccc2)C2(O)CCCC2)CC1 (configuration not stated)', '> 100 µM (inactive)'),
  ('CCc1ccccc1NC(=O)C1=C(C)NC(C)=C(C(=O)Nc2ccccc2CC)C1c1cccc([N+](=O)[O-])c1', '35.9 µM (inactive)');

Working through the 4 molecules below one at a time, give GI50 for each.
1. CN(C)c1ccc(/C=C/C=C(/C#N)c2ccccc2)cc1
2. CC(=O)ON1C(=O)c2cccc3cccc(c23)C1=O
3. Cc1ccc(NC(=O)c2cccc([N+](=O)[O-])c2O)c(C)c1
4. CC1=CC2=C(C#N)C(=O)OC2(C)C(c2ccccc2)C1 (configuration not stated)

1. 14 µM (inactive)
2. 20 µM (inactive)
3. 1.7 µM (inactive)
4. > 100 µM (inactive)

Working through the 3 molecules below one at a time, give GI50 for each.
1. CC(=O)N1CCC2(C=Nc3ccccc32)CC1
2. O=[N+]([O-])C1C2C=CC(C2)[C@H]1c1ccco1 (some centres not stated)
3. CC(C)CC(NC(=O)C(CSc1ccc([N+](=O)[O-])cc1)Cc1ccccc1)C(=O)Nc1ccccc1 (configuration not stated)

1. > 100 µM (inactive)
2. > 100 µM (inactive)
3. 27 µM (inactive)

Working through the 2 molecules below one at a time, give GI50 for each.
1. CCOC(=O)C1CCC/C1=N\NC(=N)N.Cc1cc(O)c(C(C)C)cc1S(=O)(=O)O (configuration not stated)
2. Cc1n2nc(N)sc2n[n+]1CC(=O)c1ccccc1

1. > 100 µM (inactive)
2. > 100 µM (inactive)

Working through the 4 molecules below one at a time, give GI50 for each.
1. COc1ccc(C2Oc3ccc(Cl)cc3C=C2[N+](=O)[O-])cc1OC (configuration not stated)
2. CCOC(=O)c1c(C)[nH]c2c1c(CN(C)C)c(O)c1nc(C)c(C)nc12
3. NC(Cc1ccccc1)C(=O)O (stereo not drawn) [DL-PHENYLALANINE]
4. CC1=C(C(=O)Nc2ccccc2)C(c2ccc(N(C)C)cc2)C(C(=O)Nc2ccccc2)=C(C)N1

1: 1.75 µM (inactive); 2: 18.5 µM (inactive); 3: > 100 µM (inactive); 4: 4.79 µM (inactive)

###

Test system: NCI-H522
Assay: NCI tumour cell line growth inhibition, 48 h
Activity calls are given as the source filed them. No stated cut-off is given here; in the data, active = GI50 up to about 1.1 µM and inactive = higher.
Give your call using only these classes: active, inactive

Sample answers from the record:
INSERT INTO assay_data (molecule, assignedclass) VALUES
  ('Cc1cccc(C)c1NC(=O)CCCC(=O)C(C#N)c1ccc(Cl)cc1 (stereo not drawn)', 'inactive'),
  ('COc1ccc(P2(=S)Oc3ccccc3-c3ccccc3O2)cc1', 'active'),
  ('Cn1cnc([N+](=O)[O-])c1Sc1nnnn1-c1ccccc1', 'inactive');

Recorded call for NNc1nnc(CCCCCCCCc2nnc(NN)n2N)n1N ? inactive

Recorded call for NNC(=S)N1CCN(C(=S)NN)CC1 ? inactive

Recorded call for Nc1ccccc1N/C(=C\C(=O)C(Cl)(Cl)Cl)c1ccccc1 ? inactive

Recorded call for CC1(C)C2CC(=O)C1(C)C(OCc1ccccc1)C2 (stereo not drawn) ? inactive

Recorded call for COc1c(C)c(C/C=C(\C)CCCC(C)CCCC(C)CCCC(C)C)c(OC)c2ccccc12 (stereo not drawn) ? inactive

Recorded call for CC(=O)Nc1ccc2c3c(cc(O)c2c1)N(C(=O)CCCCCCC(=O)N1CC(CCl)c2c1cc(O)c1cc(NC(C)=O)ccc21)CC3CCl (stereo not drawn) ? active

Recorded call for NC(CCSCCF)C(=O)O (stereo not drawn) ? inactive

###

For each of the molecules below, state its GI50.
Tested on: BT-549
Assay: NCI tumour cell line growth inhibition, 48 h
Calls of active or inactive are those of the source. Rule as the data show it: active = GI50 up to about 1.1 µM and inactive = higher.

INSERT INTO assay_data (smilesinput, quantitykind, val) VALUES
  ('COC(=O)C1=CCC[C@H]2[C@@]1(COC(C)=O)CC[C@@H](C)[C@]2(C)CC(=O)c1ccoc1', 'GI50', '10.9 µM (inactive)'),
  ('NCCOc1cccc(C2(N3CCCCC3)CCCCC2)c1', 'GI50', '19.1 µM (inactive)'),
  ('O=C(c1ccccc1F)c1c(NCc2ccccc2)c(=O)c1=O', 'GI50', '> 100 µM (inactive)'),
  ('O=C(O)c1cc2ccccc2c(/N=N/c2ccc(S(=O)(=O)Nc3ccccn3)cc2)c1O', 'GI50', '> 100 µM (inactive)');

Turning to the following molecule.
Entry Clc1ccc(Nc2nnc(CNc3ccc(-c4nnc(Nc5ccc(Cl)cc5)s4)cc3)s2)cc1 needs its GI50 filled in; supply it. 71.9 µM (inactive)

All values here come from ChEMBL document CHEMBL1201862.
